test system: VchCAST RNA-guided transposition machinery (E. coli BL21(DE3) host, lacZ target); experiment: relative integration efficiency (T-RL orientation) vs wild-type transposon end (log2 (normalized fold change)); transposon end mutated: right end (5 bp flank + 75 bp right end); higher = more efficient transposition
outcome.measure: relative integration efficiency (log2)

- sequence.input: "ACATTTGTTGATACAACCATAAAAACTAAATTACACCCATAAATTGATAATTATCACACCCATAAATTGATATTGCCTCTGATCATAGTCAGACCAACATTGCTACGACCCGTATTCGCACCGACAC"
  test.target: "VchCAST RNA-guided transposition machinery (E. coli BL21(DE3) host, lacZ target)"
  assay.value: -1.23
- sequence.input: "ACATTTGTTGAAAAAACCATACGTTGATTTTACGAAACCATACGCTGAAATAATCACACCCATAAATTGATATTGCCTCTGATCATAGTCAGACCAACATTGCTACGACCCGTATTCGCACCGACAC"
  test.target: "VchCAST RNA-guided transposition machinery (E. coli BL21(DE3) host, lacZ target)"
  assay.value: -6.48
- sequence.input: "ACATTTGTCGATACAACCATAAAATGATAATTACCACCCATACATTGATAATTATCACACCCATTTAACTATAACGCTCTGATCATAGTCAGACCAACATTGCTACGACCCGTATTCGCACCGACAC"
  test.target: "VchCAST RNA-guided transposition machinery (E. coli BL21(DE3) host, lacZ target)"
  assay.value: -2.37
